test system: HPPD polypeptides (wild-type SEQ ID NO:1 and mutants); conditions: in the presence of mesotrione (MST), 60 μM inhibitor, high substrate concentration; kapp normalized to kapp without inhibitor
Quick list: Residual activity per entry.
Reported metric: Residual activity (%)

• 29 (protein, mutant HPPD polypeptide) MADLYENPMGLMGFEFIEFASPTPGTLEPIFEIMGFTKVATHRSKNVHLYRQGEINLILNNEPNSIASYFAAEHGPSVCGMAFRVKDSQKAYNRALELGAQPIHIDTGPMELNLPAIKGIGGAPLYLIDRFGEGSSIYDIDFVYLEGVERNPVGAGLKVIDHLTHNVYRGRMVYWANFYEKLFNFREARYFDIKGEYTGLTSKAMSAPDGMIRIPLNEESSKGAGQIEEFLMQFNGEGIQHVAFLTDDLVKTWDALKKIGMRFMTAPSDSYYEMLEGRLPDHGEPVDQLQARGILLDGSSVEGDKRLLLQIFSETLMGPVFFEFIQRKGDDGFGPHSFKVLFESVERDQVRRGVLTAD = 79
• 17 (protein, mutant HPPD polypeptide) MADLYENPMGLMGFEFIEFASPTPGTLEPIFEIMGFTKVATHRSKNVHLYRQGEINLILNNEPNSIASYFAAEHGPSVCGMAFRVKDSQKAYNRALELGAQPIHIDTGPMELNLPAIKGIGGAPLYLIDRFGEGSSIYDIDFVYLEGVERNPVGAGLKVIDHLTHNVYRGRMVYWANFYEKLFNFREARYFDIKGEYTGLTSKAMSAPDGMIRIPLNEESSKGAGQIEEFLMQFNGEGIQHVAFLTDDLVKTWDALKKIGMRFMTAPGDEYYEMLEGRLPDHGEPVDQLQARGILLDGSSVEGDKRLLLQIFSETLMGPVFFEFIQRKGDDGFGPDSFKVLFESVERDQVRRGVLTAD = 85
